Reported pIC50 values for a set of compounds
- Assayed Target: IgE-Tb binding to soluble IgE receptor FcεR1α (Y131A mutation) (Homo sapiens, UniProt P01854, N146Q/N252Q)
- Sequence (P01854 whole entry N146Q/N252Q, looked up): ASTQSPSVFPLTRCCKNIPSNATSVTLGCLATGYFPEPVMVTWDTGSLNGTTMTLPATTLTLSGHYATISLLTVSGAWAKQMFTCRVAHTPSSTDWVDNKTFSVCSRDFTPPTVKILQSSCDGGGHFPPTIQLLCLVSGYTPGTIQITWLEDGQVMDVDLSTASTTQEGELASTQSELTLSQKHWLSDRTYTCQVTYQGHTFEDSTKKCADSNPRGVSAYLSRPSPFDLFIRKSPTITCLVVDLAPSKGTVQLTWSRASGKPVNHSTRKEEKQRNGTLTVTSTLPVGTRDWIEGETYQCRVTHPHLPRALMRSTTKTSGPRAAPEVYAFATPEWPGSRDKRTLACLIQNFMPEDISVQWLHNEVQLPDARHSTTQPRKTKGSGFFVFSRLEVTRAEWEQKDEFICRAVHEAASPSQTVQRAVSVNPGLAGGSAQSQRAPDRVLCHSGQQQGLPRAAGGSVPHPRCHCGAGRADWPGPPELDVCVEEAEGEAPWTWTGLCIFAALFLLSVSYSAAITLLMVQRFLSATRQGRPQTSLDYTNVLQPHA
- Test Details: In vitro FRET assay: inhibition of binding of IgE-Tb to receptor FcεR1α-Y131A-AF488
- Settings: read-out: FRET IC50 range
pIC50: −log10 of the molar value.

The cases that follow already have their pIC50 on record.
| Compound | pIC50 |
| --- | --- |
| Cc1ccc(NC(=NC#N)NC2CCc3c2cc(S(=O)(=O)NCC(C)C)c2cc(C4CC4)ncc32)cc1 (stereo not shown) [Example 55] | 5.70 to 7.00 |
| Cn1nnc(-c2ccc(NC3CCc4cc(S(=O)(=O)NCC(C)(C)F)c5cc(C6CC6)ncc5c43)cn2)n1 (stereo not shown) [Example 77] | 7.00 to 7.30 |
| CC(C)CNS(=O)(=O)c1cc2c(c3cnc(C4CC4)cc13)CCC2N (stereo not shown) [Example 50] | 5.70 to 7.00 |

# input Quick one: pIC50 for COc1ccnc2c1ncn2C1CCc2c1cc(S(=O)(=O)NCC(C)(C)F)c1cc(C3CC3)ncc21 (stereo not shown) [Example 1] ?
# output 5.70 to 7.00

# input Quick one: pIC50 for CC(C)(F)CNS(=O)(=O)c1cc2c(c3cnc(C4CC4)cc13)CCC2n1nnnc1N (stereo not shown) [Example 39] ?
# output 5.70 to 7.00

# input Quick one: pIC50 for CC(C)CNS(=O)(=O)c1cc2c(c3cnc(C4CC4)cc13)C(Nc1nncn1-c1cccnc1)CC2 (stereo not shown) [Example 75] ?
# output 7.30 to 8.00

# input Quick one: pIC50 for CC(C)(F)CNS(=O)(=O)c1cc2c(c3cnc(C4CC4)cc13)CCC2(O)c1cccnc1 (stereo not shown) [Example 10] ?
# output 5.70 to 7.00

# input Quick one: pIC50 for COC(=O)c1ccc(NC2CCc3cc(S(=O)(=O)NCC(C)C)c4cc(C5CC5)ncc4c32)cn1 (stereo not shown) [Example 18] ?
# output 7.30 to 8.00

# input Quick one: pIC50 for CC(C)CNS(=O)(=O)c1cc2c(c3cnc(C4CC4)cc13)CCC2n1cnnc1Nc1cccnc1 (stereo not shown) [Example 91] ?
# output 7.30 to 8.00

Origin of values: patent US20240092773A1
